# TEST_DETAILS: Pharmacokinetics in rats
# Type: in vivo
# SETUP_CONDITIONS: male, Sprague-Dawley, rat, plasma, po, 10 mg/kg BEX, 0.5% CMC-Na suspension, mean ± SD
VALUE_KIND: half-life (h)

C=C(c1ccc(C(=O)O)cc1)c1cc2c(cc1C)C(C)(C)CCC2(C)C [BEX, Bexarotene]
2.98

====

# TEST_DETAILS: Pharmacokinetics in rats
# Format: in vivo
# SETUP_CONDITIONS: male, Sprague-Dawley, rat, plasma, po, 10 mg/kg BEX, 0.5% CMC-Na suspension, mean ± SD
VALUE_KIND: AUC(0-inf) (ng·h/mL)

C=C(c1ccc(C(=O)O)cc1)c1cc2c(cc1C)C(C)(C)CCC2(C)C
8790
